Attribution: the supplement of paper PMC10567573

B1: PBXIP1 (parent)
chain: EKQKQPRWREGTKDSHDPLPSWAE

variants of: B1; test: protein stability index of a GFP-peptide fusion (GPS, HEK-293T) (PSI 1-6); higher = more stable; conditions: c terminus: a fixed tail appended;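 further: lentivirally expressed fusions sorted by FACS into six bins by GFP to DsRed ratio, PSI derived from sequencing read proportions per bin multiplied by bin number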
Output TRUE for protein stability index not less than 2; output FALSE otherwise.

Given `EKQKLPRWREGTKDSHDPLPSWAE` , state whether its protein stability index is at least 2.
FALSE

Given `EKQKQPRWREGTKDSHIPLPSWAE` , state whether its protein stability index is at least 2.
FALSE

Given `EKQKQPRWREGTKDSHPPLPSWAE` , state whether its protein stability index is at least 2.
FALSE

Given `MKQKQPRWREGTKDSHDPLPSWAE` , state whether its protein stability index is at least 2.
FALSE

Given `EKQKQPRWREGTKDSHDPSPSWAE` , state whether its protein stability index is at least 2.
FALSE

Given `EKLKQPRWREGTKDSHDPLPSWAE` , state whether its protein stability index is at least 2.
FALSE

Given `EKQKQPRWREGTKDSHDPLPSWAC` , state whether its protein stability index is at least 2.
TRUE

Given `EKQKQTRWREGTKDSHDPLPSWAE` , state whether its protein stability index is at least 2.
TRUE

Given `EKQKQPRWREGTKDSHCPLPSWAE` , state whether its protein stability index is at least 2.
TRUE

Given `EKQKQPRWLEGTKDSHDPLPSWAE` , state whether its protein stability index is at least 2.
TRUE

Given `EKQKQPRWHEGTKDSHDPLPSWAE` , state whether its protein stability index is at least 2.
FALSE
